- test: Cytotoxicity assay in MT-4 cells
- Assay type: cell-based, human
- condition set: human, uninfected MT-4 cells, 5 days incubation; read-out: CC50
recorded endpoint: CC50 at 5 days

- O=C(NCc1c(F)cc(F)cc1F)c1cn2c(c(O)c1=O)C(=O)N1C[C@H]2CCC(F)(F)C1 [Example 3-1]: > 40.2 µM
- O=C(NCc1ccc(F)cc1F)c1cn2c(c(O)c1=O)C(=O)N1CCCOCC2C1 (racemic) [rac-1]: > 47.9 µM
- COC1CCCN2C[C@@H]1n1cc(C(=O)NCc3c(F)cc(F)cc3F)c(=O)c(O)c1C2=O (stereo partly shown) [Example 99-1]: > 22.2 µM
- CO[C@H]1CC[C@H]2CN(C1)C(=O)c1c(O)c(=O)c(C(=O)NCc3c(F)cc(F)cc3F)cn12 [Example 91]: > 50 µM
